experiment: soluble on expression in E. coli; label from the status in PepcDB or PDB records

sequence content	soluble on expression in E. coli
MGVERIKAAFENGKKAFIPYVMGGDGGLEILKERIRFLDEAGASIVEIGIPFSDPVADGPTIQRAGKRALDSGVTVKGIFQALIEVRKEVQIPFVLMTYLNPVLAFGKERFIENCMEAGVDGIIVPDLPYEEQDIIAPLLREANIALIPLVTVTSPIERIKKITSESEGFVYAVTVAGVTGVRQNFKDEIHSYLEKVKSHTHLPVVAGFGISTKEHVEEMVTICDGVVVGSKVIELLENEKREEICEFIQATKQKEEA	not soluble
MSLKHVIVETEETGYQTRSRVVSVEARTIRVPLERSTAFSTRLVTARDYTVVRVTTADGHYGIGFCYSGNRAGMLVTYAVRELFAPLLLGRSALDVEGSWCAMYDESLLQGRAGSVMRALSILDIALWDRNARATGLPLSRYLGGTCSATVPAYASGGYYLEGKTPEHLGEEMAGYVALGFRAVKMKVGRLDPRSEEARIRAAREAIGDDVLLMLDANNAWSDVPTALEYMRRYEPFNPYWIEEPFSPDDIESHAQLSRRTPVTVATGEIEAGRWRHQELLDKRAALILQSDAAVCGGISEWRRIAASAAAVGVTMCPHWFHDLHVHLVASTTNARYVEFFPDDQVLNFRRLVDTQLSFADGKLTVPTRPGLGFDFDEAALNEYALDDWAEGHHHHHH	not soluble
MRIVYCISGTCNSGGMERVLSNKANYLAAHGYEVTIVTTDQRGRRPFFALDGRIECVDLDVNYETNNGKSFFNKLVHYPFKQLKHKRRLTKVLNLIKPDITVSMFCNDVAFLPSIQDGSKKVLEVHFSRFKRLQYDRKGLWRLADKWRNRNEQRQVACFDKFVVLTHEDKDYWEGHANIEVIPNAQTFACDVPAALESKTVVAVGRYTYQKGFDMLLRAWRRVCDSIDDWQLHIVGEGEMKESLQQQILDLSLEDRVELCPATSDIQSVYREASVLVLSSRYEGFGMVLLEAQTAGVPTVSFDCKCGPSDIVADGVTGYLVPANDIPALAEKLLVLMRDETLRKQMGRNAFADASRFSEKAVMQRWTDLFENFR	not soluble

###

assay: soluble on expression in E. coli; label from the status in PepcDB or PDB records
readout: soluble on expression in E. coli

sequence content	readout	reported value
GPGSMTGRTSSVSENHLGFSAEGGVVNYALLQPHRTEAERRPLAPSEVAQHLMASAAAASGATHSATGGSGAHTMRQCTPKELATRSSKVVTLYDLAGHERYLKTTVLGMTRNMPDYACIVISANNGIQRMTKEHLALCLALKLPFFIVVTRIDSTPPNIHDETLSNIHKLLKIPTVRKLSYPVRRHDEVTLAAKNCAMIALPRSSKSATLPVLASLTYCNSLTYSRLGRTGGRRATCQRR	soluble on expression in E. coli	not soluble
MKLKVVYRKVSDYICYDLKEIVLPSSLPDPPHVVKRRKLTWHERFLVLKEASRLYAASWVRDIGPELRPNDYKKQGDAEPKKQAKEAENEPSVLEDLAVAARGGMETLRPALHRLYMTRASNYKDALTSFIKGYHEGLQQVMQNKAESEAPADEADKSKKTT	soluble on expression in E. coli	soluble
MGSDKIHHHHHHMIKEFNATVRYLESVLESEIDEREFLRISGYSVPMFSRLFSILTDMSLSEYVRLRKLTRAAMDIREGQAKIIDIAFKYGYESSDSFAFAFKQFHQISPSQVRKGLPFKVLLPLQLSLTIQGGKEMDVRIEKKAGFTVAGLLRTAISNEVCPQVWEDLFKNHTYEELAALGSGQSFGVCTLAQADETINYMAAYDVTDSEKATKLGLELLDVHEADYAIFTLIGPVPQSIHAGWRYALETFFPEHGYRHSGAPDFEYYFEGDMSSPDYQMELWIPIVKA	soluble on expression in E. coli	not soluble
MGSDKIHHHHHHMVDCDRIDRLIAAVPPALALRAGLDLGIFTRLGGDAATADSLGAALKVEPDRLSRLLYALASIDLLEVKDGQFRNGAEASAFLDASKPTYRGGDHALLRELWGADLLTAESLRQNRPAALHDFSEAGPEAAAAFSRMLAPGGVIFGRHLAREIDLSAIGSVIDIGGGAGTILVGLRERRRQIAATLMELPTVAAVAPAILSEYGADDVIVEEGDITVAPSIGRHDLAILKAVVQVLPPDQARNAILNAARCLTPGGEIAIAGWGVVDDDRLGPSEGVFLNLTFLNLYRHGESYTEGQYRAWMTEAGFRNISRSRLTDGTALFRGRLTD	soluble on expression in E. coli	not soluble
MMKTRGFELITDYTDENLLPKRETAHAAGYDLKVAERTEISAGAIVLVPTGVKAYMQVGEVLYLFDRSSNPRKKGLVLINSVGVIDGDYYNNPNNEGHIFAQMKNMTDQTVVLEAGERVVQGVFMPFLLIDGDKATGTRTGGFGSTGG	soluble on expression in E. coli	soluble
MSKSWGKFIEEEEAEMASRRNLMIVDGTNLGFRFKHNNSKKPFASSYVSTIQSLAKSYSARTTIVLGDKGKSVFRLEHLPEYAGNRDEKYAQRTEEEKALDEQFFEYLKDAFELCKTTFPTFTIRGVEADDMAAYIVKLIGHLYDHVWLISTDGDWDTLLTDKVSRFSFTTRREYHLRDMYEHHNVDDVEQFISLKAIMGDLGDNIRGVEGIGAKRGYNIIREFGNVLDIIDQLPLPGKQKYIQNLNASEELLFRNLILVDLPTYCVDAIAAVGQDVLDKFTKDILEIAEQ	soluble on expression in E. coli	soluble
